// data source = PubChem BioAssay AID1259333

System: cytotoxicity, CellTiter-Glo ATP luminescence
ASSAY PROTOCOL: loss of cell viability by ATP content – CellTiter-Glo, cytotoxicity control, dose response (AID 1259333)
Activity calls are given as the source filed them. No rule for the calls is given here; tested in parental BL2 cells.
Labels: active, inactive

COMPOUND: Cc1cc(C)nc(Sc2ncnc(N)c2[N+](=O)[O-])n1
CLASS: inactive

COMPOUND: CC(C)Cc1ccc(C(C)CC2=CCC(CN(C)C)C2=O)cc1 (stereo not drawn)
CLASS: active

COMPOUND: O=C(Cn1ncc(Cl)c(Cl)c1=O)NC1CCCCC1
CLASS: active

---

Test system: cytotoxicity, CellTiter-Glo ATP luminescence
ASSAY PROTOCOL: loss of cell viability by ATP content – CellTiter-Glo, cytotoxicity control, dose response (AID 1259333)
Activity calls are given as the source filed them. No rule for the calls is given here; tested in parental BL2 cells.
Classes used: True for active, False for inactive

SMILES STRING: Cc1cc(OCC(=O)OCC(=O)NCc2ccco2)ccc1Cl
CLASS: True
//
SMILES STRING: N#C[C@H]1[C@H](c2ccc(C#CC3CCCCC3)cc2)[C@H](CO)N1C(=O)Nc1ccc(F)cc1
CLASS: False
//
SMILES STRING: C[C@H]1CN([C@@H](C)CO)C(=O)c2ccccc2-c2ccccc2CO[C@@H]1CN(C)Cc1ccccc1C(F)(F)F
CLASS: True
//
SMILES STRING: C[C@@H]1CN([C@H](C)CO)C(=O)c2c(c3ccccc3n2C)-c2ccccc2CO[C@H]1CN(C)Cc1cccc(C(F)(F)F)c1
CLASS: False

---

Test system: cytotoxicity, CellTiter-Glo ATP luminescence
ASSAY PROTOCOL: loss of cell viability by ATP content – CellTiter-Glo, cytotoxicity control, dose response (AID 1259333)
Active and inactive are the calls of the source. The rule behind the calls is not given here; tested in parental BL2 cells.
Outcomes: 1 (yes) (active), 0 (no) (inactive)

COMPOUND: C[C@@H]1CN([C@@H](C)CO)C(=O)c2c(c3ccccc3n2C)-c2ccccc2CO[C@H]1CN(C)S(=O)(=O)c1ccc([N+](=O)[O-])cc1
CLASS: 0 (no)
--
COMPOUND: CN(C)c1ccc(C=c2c3cc(O)ccc3n3c2cc(-c2ccccc2)[n+]3C)cc1
CLASS: 1 (yes)
--
COMPOUND: c1cc(-c2cnn3cc(-c4ccc(OCCN5CCCCC5)cc4)cnc23)ccn1
CLASS: 1 (yes)
--
COMPOUND: CC(C)(C)[C@H](N)C(=O)N[C@H]1CCC2C3CC=C4C[C@@H](O)CC[C@]4(C)C3CC[C@@]21C (some centres not stated)
CLASS: 1 (yes)
--
COMPOUND: CC1CC(C)C(=O)C(C(O)CC2CC(=O)NC(=O)C2)C1 (configuration not stated)
CLASS: 0 (no)
--
COMPOUND: C[C@H]1CN([C@@H](C)CO)C(=O)c2c(c3ccccc3n2C)-c2ccccc2CO[C@@H]1CN(C)C(=O)Nc1ccccc1C(F)(F)F
CLASS: 0 (no)
--
COMPOUND: O=C1NC2C(O)C(O)C(O)C(O)C2c2cc3c(c(O)c21)OCO3 (configuration not stated)
CLASS: 1 (yes)
--
COMPOUND: Fc1ccccc1CNCCC(Cc1ccccc1)c1ccc2c(c1)OCO2 (configuration not stated)
CLASS: 0 (no)
--
COMPOUND: CC1OC(CC(=O)O)CC2=C1C(=O)c1c(O)cccc1C2=O (configuration not stated)
CLASS: 1 (yes)
--
COMPOUND: Cc1ccc(-c2cc(C(=O)N3CC(C)OC(C)C3)c3ccccc3n2)o1 (configuration not stated)
CLASS: 0 (no)
--
COMPOUND: C[C@@H]1O[C@@H](O[C@H]2C[C@@H](O)[C@]3(CO)C4C(CC[C@]3(O)C2)[C@@]2(O)CC[C@H](C3=CC(=O)OC3)[C@@]2(C)C[C@H]4O)[C@H](O)[C@H](O)[C@H]1O (some centres not stated)
CLASS: 1 (yes)
--
COMPOUND: C[n+]1c2n(c3ccccc31)N=C(c1ccc(-c3ccccc3)cc1)CS2
CLASS: 1 (yes)
--
COMPOUND: CCN(CC)C(=O)c1ccc(NC(=O)Nc2ccccc2F)cc1
CLASS: 1 (yes)
--
COMPOUND: OC1CC2CCC(C1)N2CCCN1c2ccccc2Sc2ccc(Cl)cc21 (configuration not stated)
CLASS: 1 (yes)
--
COMPOUND: CNC(=S)NN=C(C)CCCC(C)=NNC(=S)NC
CLASS: 1 (yes)
--
COMPOUND: CO[C@H]1CC(O[C@@H]2/C(C)=C/C[C@@H]3C[C@@H](C[C@]4(CC[C@H](C)[C@@H](C5CCCCC5)O4)O3)OC(=O)[C@@H]3C=C(C)/C(=N/O)[C@H]4OC/C(=C\C=C\[C@@H]2C)[C@]43O)O[C@@H](C)C1O (some centres not stated)
CLASS: 1 (yes)
--
COMPOUND: COc1ccc(S(=O)(=O)Nc2ccc3c(c2)C(=O)N([C@@H](C)CO)C[C@@H](C)[C@@H](CN(C)Cc2ccc(C(F)(F)F)cc2)OCCCC[C@H](C)O3)cc1
CLASS: 0 (no)

---

Test system: cytotoxicity, CellTiter-Glo ATP luminescence
ASSAY PROTOCOL: loss of cell viability by ATP content – CellTiter-Glo, cytotoxicity control, dose response (AID 1259333)
Active and inactive are the calls of the source. No rule for the calls is given here; tested in parental BL2 cells.
Possible outcomes: active, inactive

MOLECULE: Cc1cnc(NC(=O)c2ccccn2)s1
CLASS: active

MOLECULE: C[C@H](CO)N1C[C@H](C)[C@H](CN(C)S(=O)(=O)c2ccc([N+](=O)[O-])cc2)OCc2ccccc2-c2c(n(C)c3ccccc23)C1=O
CLASS: inactive

MOLECULE: CCC(C)[C@H]1O[C@]2(CC[C@@H]1C)C[C@@H]1C[C@@H](C/C=C(\C)[C@@H](OC3C[C@H](OC)C(O[C@H]4C[C@H](OC)[C@@H](O)[C@H](C)O4)[C@H](C)O3)[C@@H](C)/C=C/C=C3\CO[C@@H]4[C@H](O)C(C)=C[C@@H](C(=O)O1)[C@]34O)O2 (stereo partly drawn)
CLASS: inactive

MOLECULE: O=C(NCCC(c1ccccc1)c1ccco1)c1cccs1 (stereo not drawn)
CLASS: inactive

MOLECULE: COC(=O)C1=C(C)NC(C)=C(C(=O)OCCCN2CCC(c3ccccc3)(c3ccccc3)CC2)[C@H]1c1cccc([N+](=O)[O-])c1
CLASS: inactive

MOLECULE: COc1ccc2c3c(n(C)c2c1)[C@H](CO)N(C(=O)Nc1ccc(F)cc1)CC31CCN(C(=O)c2ccc3c(c2)OCO3)CC1
CLASS: inactive

MOLECULE: COc1ccc(S(=O)(=O)Nc2ccc3c(c2)C(=O)N([C@H](C)CO)C[C@@H](C)[C@@H](CN(C)Cc2ccc(C(F)(F)F)cc2)OCCCC[C@H](C)O3)cc1
CLASS: inactive

MOLECULE: C[C@@H]1CN([C@@H](C)CO)C(=O)c2c(c3ccccc3n2C)-c2ccccc2CO[C@H]1CN(C)C(=O)Nc1cccc(C(F)(F)F)c1
CLASS: active

MOLECULE: C[C@@H]1CN([C@H](C)CO)C(=O)c2c(c3ccccc3n2C)-c2ccccc2CO[C@H]1CN(C)C(=O)Nc1cccc(Cl)c1Cl
CLASS: active

MOLECULE: NC(c1csc(NC(=O)Nc2cccc(Cl)c2)n1)c1ccccc1Cl (stereo not drawn)
CLASS: inactive

MOLECULE: COc1ccc(/C=C/C(=O)Nc2ccccc2C(=O)O)cc1OC
CLASS: inactive

MOLECULE: CC(C)(C)c1cc(C=C(C#N)C#N)cc(C(C)(C)C)c1O
CLASS: inactive

MOLECULE: CC(C)[C@H](N)C(=O)N[C@H]1CCC2C3CC=C4C[C@@H](O)CC[C@]4(C)C3CC[C@@]21C (stereo partly drawn)
CLASS: active

MOLECULE: COc1ccc2c3c(n(C)c2c1)[C@H](CO)N(C(C)=O)CC31CN(Cc2ccc(Cl)cc2)C1
CLASS: inactive

MOLECULE: N#C[C@@H]1[C@H](c2ccc(C#CC3CCCCC3)cc2)[C@H](CO)N1C(=O)Nc1ccc(F)cc1
CLASS: inactive

MOLECULE: Cc1noc(C)c1S(=O)(=O)Nc1ccc2c(c1)CC(=O)N([C@@H](C)CO)C[C@@H](C)[C@@H](CN(C)Cc1ccc(Oc3ccccc3)cc1)O2
CLASS: inactive

MOLECULE: C[C@H]1CN([C@@H](C)CO)C(=O)c2ccccc2-c2ccccc2CO[C@H]1CN(C)Cc1ccc(Oc2ccccc2)cc1
CLASS: inactive

MOLECULE: N#C[C@H]1[C@H](c2ccc(C#Cc3ccccc3F)cc2)[C@@H](CO)N1C(=O)c1cccnc1
CLASS: active

MOLECULE: O=C1NC2C(=CC(O)C(O)C2O)c2cc3c(c(O)c21)OCO3 (stereo not drawn)
CLASS: active

MOLECULE: CC(C(=O)O)c1ccc(N2Cc3ccccc3C2=O)cc1 (stereo not drawn)
CLASS: active

MOLECULE: C[C@@H]1CN([C@H](C)CO)C(=O)c2ccccc2-c2ccccc2CO[C@@H]1CN(C)C(=O)c1cc(Cl)cc(Cl)c1
CLASS: active

MOLECULE: N=C(N)c1ccc(OCCCCCOc2ccc(C(=N)N)cc2)cc1
CLASS: inactive

MOLECULE: O=C(C1CC1)N1C[C@@H]2N[C@H](C1)[C@@H]2c1ccc(-c2ccncc2)cc1
CLASS: inactive

MOLECULE: O=C(Nc1ccc(C(F)(F)F)cc1)N1C[C@@H]2N[C@H](C1)C2c1ccc(-c2ccccc2)cc1 (stereo partly drawn)
CLASS: active

MOLECULE: COc1ccc(S(=O)(=O)Nc2ccc3c(c2)C(=O)N([C@H](C)CO)C[C@@H](C)[C@H](CN(C)Cc2ccc(C(F)(F)F)cc2)OCCCC[C@@H](C)O3)cc1
CLASS: active

MOLECULE: N#C[C@@H]1[C@H](c2ccc(C#CC3CCCCC3)cc2)[C@@H](CO)N1C(=O)Nc1ccc(F)cc1
CLASS: inactive

MOLECULE: CCCNC(=O)N1[C@H](C#N)[C@H](c2ccc(C3=CCCCC3)cc2)[C@@H]1CO
CLASS: inactive

MOLECULE: NS(=O)(=O)c1cc2c(cc1C(F)(F)F)NC(Cc1ccccc1)NS2(=O)=O (stereo not drawn)
CLASS: inactive

MOLECULE: CC(C)(C)CC(C)(C)c1ccc(O)c(Cc2ccc(Cl)cc2Cl)c1
CLASS: active

MOLECULE: C[C@H]1CN([C@@H](C)CO)C(=O)c2c(c3ccccc3n2C)-c2ccccc2CO[C@@H]1CN(C)Cc1cccc(C(F)(F)F)c1
CLASS: active

MOLECULE: COc1ccc(/C=N/Nc2ncccc2[N+](=O)[O-])c(OC)c1
CLASS: active

MOLECULE: COC(=O)C12OCC34C(CC5C(C)=C(O)C(=O)CC5(C)C3C(O)C1O)OC(=O)C(OC(=O)C=C(C)C)C24 (stereo not drawn)
CLASS: active

MOLECULE: CCSc1ccc(-c2cc(NC=O)c3ncc(-c4cccc(C(=O)N(C)C)c4)n3c2)cc1
CLASS: inactive
